Where do the numbers come from? From patent US4698329A.

Consider the following compounds and their measured % Inhibition (human renin) readings.
testedOn: human renin (Homo sapiens, UniProt P00797)
methodSummary: Inhibition of renin activity (human renin, sheep angiotensinogen)
Type: biochemical
runConditions: concentration of test cpd. 1 × 10^-5 M, pH 7.3, 10 minutes at 37° C., mean of 3 or 4 experiments
Square brackets hold non-standard residues; d marks the D form. Peptide text beside a SMILES is read from it. * marks the point of attachment. 1Nal = N[C@@H](Cc1cccc2ccccc12)C(=O)O; Sta = CC(C)C[C@H](N)[C@@H](O)CC(=O)O; Cbz = O=C(OCc1ccccc1)*; NHBu = CCCCN*
Numbers only here, please. The scale is %.

Look over these answered cases.
CCNC(=O)C[C@H](O)[C@H](CC(C)C)NC(=O)[C@H](Cc1c[nH]cn1)NC(=O)[C@H](Cc1cccc2ccccc12)NC(=O)OCc1ccccc1 [Compound 66] (Cbz-[1Nal]-His-[Sta]-NHEt) :: 96
CCCCNC(=O)C[C@H](O)[C@H](CC(C)C)NC(=O)[C@H](Cc1c[nH]cn1)NC(=O)[C@H](Cc1cccc2ccccc12)NC(=O)OCc1ccccc1 [Compound 64] (Cbz-[1Nal]-His-[Sta]-NHBu) :: 95
CCOC(=O)C[C@H](O)[C@H](CC(C)C)NC(=O)[C@H](Cc1c[nH]cn1)NC(=O)[C@H](Cc1cccc2ccccc12)NC(=O)OCc1ccccc1 [Compound 5] (Cbz-[1Nal]-His-[Sta]-OEt) :: 79
CC[C@H](C)[C@@H](CO)NC(=O)C[C@H](O)[C@H](CC(C)C)NC(=O)[C@H](Cc1c[nH]cn1)NC(=O)[C@H](Cc1cccc2ccccc12)NC(=O)OCc1ccccc1 [Compound 67] :: 98
COC(=O)[C@@H](O)[C@H](CC(C)C)NC(=O)[C@H](Cc1c[nH]cn1)NC(=O)[C@H](Cc1cccc2ccccc12)NC(=O)OCc1ccccc1 [Compound 62] :: 53

Now turn to the next compound.
Summary for this compound, CCC(C)CNC(=O)C[C@H](O)[C@H](CC(C)C)NC(=O)[C@@H](Cc1c[nH]cn1)NC(=O)[C@H](Cc1cccc2ccccc12)NC(=O)OCc1ccccc1 (stereo partly drawn) [Compound 93] : % Inhibition (human renin) is 99

---

testedOn: UniProt:P00797
Sequence (P00797 67-406): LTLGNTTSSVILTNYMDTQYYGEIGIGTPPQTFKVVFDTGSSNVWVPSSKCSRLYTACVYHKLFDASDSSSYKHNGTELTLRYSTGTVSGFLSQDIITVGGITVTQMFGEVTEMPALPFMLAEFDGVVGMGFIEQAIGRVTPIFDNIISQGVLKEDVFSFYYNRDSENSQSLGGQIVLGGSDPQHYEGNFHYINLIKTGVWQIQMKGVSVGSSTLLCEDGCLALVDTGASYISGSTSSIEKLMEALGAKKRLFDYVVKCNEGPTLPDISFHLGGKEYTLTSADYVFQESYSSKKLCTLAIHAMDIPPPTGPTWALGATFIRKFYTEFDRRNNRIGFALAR
methodSummary: Inhibition of renin activity (human renin, sheep angiotensinogen)
Type: biochemical
runConditions: concentration of test cpd. 1 × 10^-5 M, pH 7.3, 10 minutes at 37° C., mean of 3 or 4 experiments
Protocol: The ability of various compounds of the invention to inhibit the activity of renin was determined according to the following method, which follows essentially the procedure of Kokubu et al. [Hypertension, 5, 191-197 (1983)]. Specifically, each test compound was dissolved in 60% v/v aqueous ethanol. Human renin activity in the presence and absence of each compound was measured using sheep angiotensinogen. […]
Square brackets hold non-standard residues; d marks the D form. Peptide text beside a SMILES is read from it. * marks the point of attachment. 1Nal = N[C@@H](Cc1cccc2ccccc12)C(=O)O; Sta = CC(C)C[C@H](N)[C@@H](O)CC(=O)O; Cbz = O=C(OCc1ccccc1)*; NHNH2 = NN*
assayEndpoint: % Inhibition (human renin) (%)
Quick note: give the figure in %, leave out the unit.

CC(C)C[C@H](NC(=O)[C@H](Cc1c[nH]cn1)NC(=O)[C@H](Cc1cccc2ccccc12)NC(=O)OCc1ccccc1)[C@@H](O)CC(=O)O [Compound 3] (Cbz-[1Nal]-His-[Sta]-OH) :: 72
CC(C)C[C@H](NC(=O)[C@H](Cc1c[nH]cn1)NC(=O)[C@H](Cc1cccc2ccccc12)NC(=O)OCc1ccccc1)[C@@H](O)CC(=O)NN [Compound 38] (Cbz-[1Nal]-His-[Sta]-NHNH2) :: 89
CC[C@H](C)CNC(=O)C[C@H](O)[C@H](CC(C)C)NC(=O)[C@H](Cc1c[nH]cn1)NC(=O)[C@H](Cc1cccc2ccccc12)NC(=O)OCc1ccccc1 :: 99

Recorded % Inhibition (human renin) for `CC(C)C[C@H](NC(=O)[C@H](Cc1c[nH]cn1)NC(=O)[C@H](Cc1cccc2ccccc12)NC(=O)OCc1ccccc1)[C@@H](O)CC(=O)N1CCC(c2ccccc2)CC1` on UniProt:P00797 was 84

Entry `CC(C)C[C@H](NC(=O)[C@H](Cc1c[nH]cn1)NC(=O)[C@H](Cc1cccc2ccccc12)NC(=O)OCc1ccccc1)[C@@H](O)CC(=O)NNC(=O)CCCc1ccccc1` : % Inhibition (human renin) on UniProt:P00797 = 84
